experiment_summary: in vitro
condition_parameters: human, Caco-2, Caco-2 (cm/sec)
Where a SMILES comes first, the peptide text is derived from it. Bridges are numbered along the chain shown (N, C = ends). [ ]: non-standard residue; d: D form. The star is where a group is joined. dhPhe(4-CONHMe,3-OMe) = CNC(=O)c1ccc(CC[C@@H](N)C(=O)O)cc1OC; NMeF = CN[C@@H](Cc1ccccc1)C(=O)O; NMeL = CN[C@@H](CC(C)C)C(=O)O; NMeAbu = CC[C@H](NC)C(=O)O; Piperidide = C1CCN(*)CC1; Sar = CNCC(=O)O
parameter_measured: Papp (×10⁻⁶ cm/s)

INSERT INTO results (compound, experimental_result) VALUES
  ('CC[C@H]1C(=O)N[C@@H](CC(C)C)C(=O)N(C)[C@@H](CC(C)C)C(=O)N(C)[C@@H](Cc2ccccc2)C(=O)N[C@H](CCc2ccc(C(=O)NC)c(OC)c2)C(=O)N(C)[C@@H](CC(C)C)C(=O)N(C)[C@@H](CC(C)C)C(=O)N[C@@H]([C@@H](C)O)C(=O)N(C)CC(=O)N(C)[C@@H](CC(C)C)C(=O)N[C@H](C(=O)N2CCCCC2)CC(=O)N1C [AP212] ([NMeAbu]L[NMeL][NMeF][dhPhe(4-CONHMe,3-OMe)][NMeL][NMeL]T[Sar][NMeL]D-Piperidide; lactam N-11)', 0.64);

----------
experiment_summary: Membrane permeability test of cyclic peptides (Caco-2, modified/improved method of WO 2018/124162)
condition_parameters: human, Caco-2, Caco-2 (cm/sec), membrane permeability of cyclic peptides, Caco-2
Where a SMILES comes first, the peptide text is derived from it. Bridges are numbered along the chain shown (N, C = ends). [ ]: non-standard residue; d: D form. The star is where a group is joined. ξ: configuration not given here. CH2(1,2,4-oxadiazolon-3-yl) = O=c1[nH]c(C*)no1; NMeF = CN[C@@H](Cc1ccccc1)C(=O)O; NMeL = CN[C@@H](CC(C)C)C(=O)O; NMeAbu = CC[C@H](NC)C(=O)O; Piperidide = C1CCN(*)CC1; NBuGly = CCCCNCC(=O)O; ξS = NC(CO)C(=O)O
parameter_measured: Papp (×10⁻⁶ cm/s)

INSERT INTO measurements (molecule, experimental_result) VALUES
  ('CCCCN1CC(=O)N(C)[C@@H](CC(C)C)C(=O)N[C@H](C(=O)N2CCCCC2)CC(=O)N(C)[C@@H](CC)C(=O)N[C@@H](CC(C)C)C(=O)N(C)[C@@H](CC(C)C)C(=O)N(C)[C@@H](Cc2ccccc2)C(=O)NC(COCc2noc(=O)[nH]2)C(=O)N(C)[C@@H](CC(C)C)C(=O)N(C)[C@@H](CC(C)C)C(=O)N[C@@H]([C@@H](C)O)C1=O (stereo partly drawn) [AP47] ([NMeAbu]L[NMeL][NMeF][ξS](CH2(1,2,4-oxadiazolon-3-yl))[NMeL][NMeL]T[NBuGly][NMeL]D-Piperidide; lactam N-11)', 5.3);

----------
The entries below are paired with their reported Papp.
experiment_summary: in vitro
condition_parameters: human, Caco-2, Caco-2 (cm/sec)
*1 amine or outer side, *2 acyl side, *3 side chain or, on linkers, in order; H or OH if unused. Where a SMILES comes first, the peptide text is derived from it. Bridges are numbered along the chain shown (N, C = ends). [ ]: non-standard residue; d: D form. The star is where a group is joined. X14 = CC(C)[C@H](CC(=O)[C@H](Cc1ccccc1)N(C)[*:1])C(=O)[*:2]; X19 = CC(C)C[C@H](NN(C)[C@H](Cc1ccccc1)N(C)[*:1])C(=O)[*:2]; Tyr(3-OMe) = COc1cc(C[C@H](N)C(=O)O)ccc1O; NMeF = CN[C@@H](Cc1ccccc1)C(=O)O; NMeGABA = CN(CCCC(=O)[*:2])[*:1]; NMeL = CN[C@@H](CC(C)C)C(=O)O; NMeV = CN[C@H](C(=O)O)C(C)C; NMeAbu = CC[C@H](NC)C(=O)O; Piperidide = C1CCN(*)CC1; X8 = C1COC[C@@H](C*)N1; NBuGly = CCCCNCC(=O)O; Propyl(3-OH) = OCCC*; Sar = CNCC(=O)O
parameter_measured: Papp (×10⁻⁶ cm/s)

INSERT INTO results (compound, experimental_result) VALUES
  ('COc1cc(C[C@@H]2NC(=O)[C@H](CC(C)C)N(C)C(=O)CN(C)C(=O)[C@H]([C@@H](C)O)NC(=O)[C@H](CC(C)C)N(C)C(=O)[C@H](CC(C)C)NN(C)[C@H](Cc3ccccc3)N(C)C(=O)[C@@H](C(C)C)NC(=O)C[C@@H](C(=O)N3CCCCC3)NC(=O)[C@H](CC(C)C)N(C)C(=O)[C@H](CC(C)C)N(C)C2=O)ccc1O [Compound E01] ([dV][X19][NMeL]T[Sar][NMeL][Tyr(3-OMe)][NMeL][NMeL]D-Piperidide; lactam N-10)', 1.1),
  ('CC(C)C[C@@H]1NN(C)[C@H](Cc2ccccc2)N(C)C(=O)[C@@H](C(C)C)NC(=O)C[C@@H](C(=O)N2CCCCC2)NC(=O)[C@H](CC(C)C)N(C)C(=O)[C@H](CC(C)C)N(C)C(=O)[C@H](Cc2ccc(O)cc2)NC(=O)[C@H](CC(C)C)N(C)C(=O)CN(C)C(=O)[C@H]([C@@H](C)O)NC(=O)[C@H](CC(C)C)N(C)C1=O [Compound F01] ([dV][X19][NMeL]T[Sar][NMeL]Y[NMeL][NMeL]D-Piperidide; lactam N-10)', 0.32),
  ('CCCCN1CC(=O)N(C)[C@@H](CC(C)C)C(=O)N[C@H](C(=O)N2CCCCC2)CC(=O)N(C)[C@@H](C(C)C)C(=O)N[C@@H](COCCCO)C(=O)N(C)[C@@H](CC(C)C)C(=O)N(C)[C@@H](Cc2ccccc2)C(=O)C[C@@H](C(C)C)C(=O)N(C)[C@@H](Cc2ccccc2)C(=O)N(C)[C@@H](CC(C)C)C(=O)N[C@@H]([C@@H](C)O)C1=O [AP93] ([NMeV]S(Propyl(3-OH))[NMeL][X14][NMeF][NMeL]T[NBuGly][NMeL]D-Piperidide; lactam N-10)', 1.1),
  ('CC[C@H](C)[C@@H]1NC(=O)[C@H](CC(C)C)N(C)C(=O)CCCN(C)C(=O)C[C@@H](C(=O)N2CCCCC2)NC(=O)[C@H](CC(C)C)N(C)C(=O)[C@H](CC(C)C)N(C)C(=O)[C@H]([C@@H](C)O)NC(=O)[C@H](CC(C)C)N(C)C(=O)[C@H](Cc2ccc(O)cc2)NC(=O)[C@H](CC(C)C)N(C)C(=O)[C@H](Cc2ccccc2)N(C)C1=O [Compound F03] ([NMeGABA][NMeL]I[NMeF][NMeL]Y[NMeL]T[NMeL][NMeL]D-Piperidide; lactam N-11)', 0.13),
  ('CCCCN1CC(=O)N(C)[C@@H](CC)C(=O)N[C@@H](COC[C@@H]2COCCN2)C(=O)N(C)[C@@H](Cc2ccccc2)C(=O)N(C)[C@@H](CC)C(=O)N[C@H](C(=O)N2CCCCC2)CC(=O)N[C@H](CC(C)C)C(=O)N(C)[C@@H](CC(C)C)C(=O)N[C@@H]([C@@H](C)CC)C(=O)N(C)[C@@H](CC(C)C)C(=O)N[C@@H]([C@@H](C)O)C1=O [AP240] ([dL][NMeL]I[NMeL]T[NBuGly][NMeAbu]S(X8)[NMeF][NMeAbu]D-Piperidide; lactam N-11)', 0.08);
